Values compiled from paper PMC9867380.

- Test system: primed CD8^+ T cells (PBMCs from HLA-A2 donors)
- Format: cell-based, human
- Test conditions: old donors (65–69 years, n = 8), peptide 1 μM, day 10 after priming, 24 h ELISpot, positive above 50 SFUs per 10^6 cells
Attribute measured: IFN-γ responses in old donors

Per the record, KIADYNYKL [HLA-A2-restricted SARS-CoV-2 spike-derived peptide, residues 417–425] has IFN-γ responses in old donors of no responses

The sequence listed as TLDSKTQSL [HLA-A2-restricted SARS-CoV-2 spike-derived peptide, residues 109–117] has a reported IFN-γ responses in old donors of no responses
